Hello, the source for this data is the supplement of paper PMC5662767, in case you need it.

tested on: Drosophila S2 cl14 SmoIP sensor cells; assay: normalized SmoIP GFP fluorescence (untreated unstimulated = 0%, untreated Hh-stimulated = 100%); higher = more Smo activation sensor fluorescence; conditions: stimulation: Hh conditioned medium (+Hh); compound concentration: 2 uM; 24 h
Each entry below carries its recorded normalized SmoIP GFP fluorescence.
reported-endpoint: normalized SmoIP GFP fluorescence (%)

>>> measurement("Cn1cnc2c(F)c(Nc3ccc(Br)cc3Cl)c(C(=O)NOCCO)cc21")
126
>>> measurement("NC(=O)c1ccc(-c2nc(-c3ccccn3)c(-c3ccc4c(c3)OCO4)[nH]2)cc1")
130
>>> measurement("CC(C)(Oc1ccc(C2CC2(Cl)Cl)cc1)C(=O)O (stereo not drawn) [ciprofibrate]")
108
>>> measurement("CC(C)C[C@H](NC(=O)[C@H](CCc1ccccc1)NC(=O)CN1CCOCC1)C(=O)N[C@@H](Cc1ccccc1)C(=O)N[C@@H](CC(C)C)C(=O)[C@@]1(C)CO1")
80.7
>>> measurement("C=CCc1cccc(/C=N/NC(=O)CN2CCN(Cc3ccccc3)CC2)c1O")
154
>>> measurement("COC(=O)N[C@@H](C)CNc1nccc(-c2cn(C(C)C)nc2-c2cc(Cl)cc(NS(C)(=O)=O)c2F)n1")
170
>>> measurement("C[C@H](Nc1ncnc2nc[nH]c12)c1cc2cccc(Cl)c2c(=O)n1-c1ccccc1")
98
>>> measurement("Cc1ccc(S(=O)(=O)OCC(=O)Nc2ccc(C(=O)O)c(O)c2)cc1")
112

----------
Each entry below carries its recorded normalized SmoIP GFP fluorescence.
test system: Drosophila S2 cl14 SmoIP sensor cells; experiment: normalized SmoIP GFP fluorescence (untreated unstimulated = 0%, untreated Hh-stimulated = 100%); higher = more Smo activation sensor fluorescence; conditions: stimulation: Hh conditioned medium (+Hh); compound concentration: 2 uM; 24 h
reported-endpoint: normalized SmoIP GFP fluorescence (%)

>>> measurement("CC1=C(C(=O)OC(C)C)C(c2cccc([N+](=O)[O-])c2)C(C(=O)OC2CN(C(c3ccccc3)c3ccccc3)C2)=C(N)N1 (centres undefined)")
111
>>> measurement("COc1cc(Br)c(Nc2nc(-c3c(C)nc4ncccn34)cs2)c(Br)c1")
110
>>> measurement("CNCc1ccc(-c2cc(-c3nc(-c4ccc(S(=O)(=O)C(C)C)cc4)cnc3N)on2)cc1")
123
>>> measurement("O=c1ncn2nc(Sc3ccc(F)cc3F)ccc2c1-c1c(Cl)cccc1Cl")
79.3
>>> measurement("O=S(=O)(c1ccccc1)N(CC(F)(F)F)c1ccc(C(O)(C(F)(F)F)C(F)(F)F)cc1")
104
>>> measurement("CN(C)C(=O)c1cc2cnc(Nc3ccc(N4CCNCC4)cn3)nc2n1C1CCCC1")
98.3
>>> measurement("Cc1cccc(-c2nn3c(c2-c2ccnc4ccc(C(N)=O)cc24)CCC3)n1")
110
>>> measurement("Cc1ccccc1C(C(=O)NC1CCCCC1)N(C(=O)Cn1ccnc1C)c1cccc(F)c1 (centres undefined)")
111
>>> measurement("FC(F)(F)c1ccc(/C=C/c2nc(COc3ccc(CCCCn4ccnn4)cc3)co2)cc1")
149

----------
Each entry below carries its recorded normalized SmoIP GFP fluorescence.
system: Drosophila S2 cl14 SmoIP sensor cells; assay: normalized SmoIP GFP fluorescence (untreated unstimulated = 0%, untreated Hh-stimulated = 100%); higher = more Smo activation sensor fluorescence; settings: stimulation: Hh conditioned medium (+Hh); compound concentration: 2 uM; 24 h
Structures can show the parent of a compound that is named as a salt.
reported-endpoint: normalized SmoIP GFP fluorescence (%)

>>> measurement("O=C(Nc1cccc(Cl)c1)c1ccccn1")
105
>>> measurement("COc1cc2nc(N(C)CCCNC(=O)C3CCCO3)nc(N)c2cc1OC (stereo unspecified) [Alfuzosin-hydrochloride]")
101
>>> measurement("COCCCOc1cc(C[C@@H](C[C@H](N)[C@@H](O)C[C@H](C(=O)NCC(C)(C)C(N)=O)C(C)C)C(C)C)ccc1OC [Aliskiren-hemifumarate]")
126
>>> measurement("CNS(=O)(=O)Cc1ccc2[nH]cc(CCN(C)C)c2c1 [Sumatriptan-succinate]")
99.3
>>> measurement("O=C(O)CC[C@H]1CC[C@@](c2cc(F)ccc2F)(S(=O)(=O)c2ccc(Cl)cc2)CC1")
114
>>> measurement("O=C(Nc1cccc2cccnc12)c1ccc(N2C(=O)[C@@H]3[C@H](C2=O)[C@@H]2C=C[C@H]3C2)cc1 [iwr-1-endo]")
114
>>> measurement("CNC[C@H](O)c1cccc(O)c1 [Phenylephrine-hydrochloride]")
108
>>> measurement("CC[C@H]1OC(=O)[C@H](C)[C@@H](O[C@H]2C[C@@](C)(OC)[C@@H](O)[C@H](C)O2)[C@H](C)[C@@H](O[C@@H]2O[C@H](C)C[C@H](N(C)C)[C@H]2O)[C@](C)(OC)C[C@@H](C)C(=O)[C@H](C)[C@@H](O)[C@]1(C)O")
147
>>> measurement("COc1ccc([C@@H]2CC(=O)c3c(O)cc(O)cc3O2)cc1O")
111
>>> measurement("COc1ccc(-n2nc(C(N)=O)c3c2C(=O)N(c2ccc(N4CCCCC4=O)cc2)CC3)cc1")
102
>>> measurement("O=C(O)/C=C/c1ccc(Cn2ccnc2)cc1")
116
>>> measurement("CCCC(CCC)C(=O)O [Divalproex-sodium]")
134
>>> measurement("COC1=C2C[C@@H](C)C[C@H](OC)[C@H](O)[C@@H](C)/C=C(\\C)[C@H](OC(N)=O)[C@@H](OC)/C=C\\C=C(/C)C(=O)NC(=CC1=O)C2=O")
209
>>> measurement("O=C(/C=C\\n1cnc(-c2cc(C(F)(F)F)cc(C(F)(F)F)c2)n1)N1CC(F)(F)C1")
118
>>> measurement("COc1cccc(C=NCCN=Cc2cccc(OC)c2[O-])c1[O-].[Cl-].[Mn+3]")
114
>>> measurement("CC(C)n1nc(-c2ccc3oc(N)nc3c2)c2c(N)ncnc21")
73.9

----------
tested on: Drosophila S2 cl14 SmoIP sensor cells; assay: normalized SmoIP GFP fluorescence (untreated unstimulated = 0%, untreated Hh-stimulated = 100%); higher = more Smo activation sensor fluorescence; details: stimulation: mock conditioned medium (-Hh); compound concentration: 2 uM; 24 h;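 further: flow cytometry read-out as median GFP intensity of gated cells, compounds added 30 min before Hh-conditioned or mock medium, mock-treated cells serving as unstimulated baseline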
Where a name gives a salt, the structure may show the parent alone.
reported-endpoint: normalized SmoIP GFP fluorescence (%)

>>> measurement("Nc1ccn([C@H]2CC[C@@H](CO)O2)c(=O)n1")
-12.4
>>> measurement("O=C(N/N=C/c1ccc(O)c(O)c1)c1cc2ccccc2cc1O")
1.24
>>> measurement("Cc1ccc(-c2cc(C(F)(F)F)nn2-c2ccc(S(N)(=O)=O)cc2)cc1")
2.11
>>> measurement("Nc1ccccc1NC(=O)c1ccc(CNc2nccc(-c3cccnc3)n2)cc1")
9
>>> measurement("Oc1cc(O)cc(/C=C/c2ccc(O)c(O)c2)c1")
-2.08
>>> measurement("CN1CCN(CCCN2c3ccccc3Sc3ccc(C(F)(F)F)cc32)CC1 [trifluoperazine-dihydrochloride]")
4
>>> measurement("CC1CCc2cc(F)cc3c(=O)c(C(=O)O)cn1c23 (stereo not given)")
-3.79
>>> measurement("Cc1nc(C(=O)NCC(=O)O)c(O)c2ccc(Oc3ccccc3)cc12")
11
>>> measurement("CC(C)C[C@H](NC(=O)CNC(=O)c1cc(Cl)ccc1Cl)B1OC(=O)C(CC(=O)O)(CC(=O)O)O1")
31
>>> measurement("CC(C)N(CCC(=O)c1ccc2ccccc2c1)Cc1ccccc1")
-19
>>> measurement("COc1cc2nccc(Oc3ccc(NC(=O)Nc4cc(C)on4)c(Cl)c3)c2cc1OC")
1.89
>>> measurement("CC(C)(C)NS(=O)(=O)c1cncc(-c2cc(F)c3nc(N)nn3c2)c1")
-4.47
>>> measurement("CCc1ccc(/C=C2/SC(=S)NC2=O)cc1")
-1.63
>>> measurement("CNC(=O)c1ccccc1Nc1nc(Nc2ccc(N3CCOCC3)cc2OC)ncc1Cl")
22.3
>>> measurement("Oc1nc(-c2ccc(C(F)(F)F)cc2)nc2c1CSCC2")
5.66
>>> measurement("Oc1ccc([C@H]2COc3cc(O)ccc3C2)cc1")
-3.9
>>> measurement("CC(=O)/N=c1/sc(S(N)(=O)=O)nn1C [methazolamide]")
-2.48
>>> measurement("CC(C)(C)NC(=O)[C@H]1CC[C@H]2[C@@H]3CC[C@H]4NC(=O)C=C[C@]4(C)[C@H]3CC[C@]12C [Finasteride]")
-9.32
>>> measurement("CCCS(=O)(=O)Nc1ccc(F)c(C(=O)c2c[nH]c3ncc(Cl)cc23)c1F")
-0.0496
>>> measurement("Cc1cc(Nc2ncc(Cl)c(Nc3ccccc3S(=O)(=O)C(C)C)n2)c(OC(C)C)cc1C1CCNCC1")
3.77
